The reported numbers originate from ChEMBL document CHEMBL4689842.

Tested on: Fibroblast
protocol_details: Multiplex assay against human fibroblast
Format: toxicity, cell-based
test_context: 24 h, 1 µM, compound concentration 1 uM, replicate 1
Label rule, in plain words: Population Fragmented Nuclei (%) of 30% and up is T, under 30% is F.

molecule	classification
COc1cc2c(Nc3ccc(NC(=O)c4ccccc4)cc3)ncnc2cc1OCCCN1CCOCC1	F
Cl.Cl.NC1(c2ccc(-c3nc4ccn5c(=O)[nH]nc5c4cc3-c3ccccc3)cc2)CCC1	T
Cl.Cl.Nc1ncnc2c1c(-c1cccc(OCc3ccccc3)c1)cn2[C@H]1C[C@@H](CN2CCC2)C1	F
N#Cc1cnc(Nc2cc(NC[C@H]3CNCCO3)c(C(F)(F)F)cn2)cn1	T
CCC(=O)O[C@]1(C(=O)SCF)[C@H](C)C[C@H]2[C@@H]3C[C@H](F)C4=CC(=O)C=C[C@]4(C)[C@@]3(F)[C@@H](O)C[C@@]21C [FLUTICASONE PROPIONATE]	F
O=C(O)c1ccc2cc(-c3ccc(O)c(C45CC6CC(CC(C6)C4)C5)c3)ccc2c1	T
COc1cc2c(NC3CCN(C(C)C)CC3)nc(N3CCC(F)(F)CC3)nc2cc1OCCCN1CCCC1	T
CN(C)C/C=C/C(=O)Nc1cc2c(Nc3ccc(F)c(Cl)c3)ncnc2cc1O[C@H]1CCOC1.O=C(O)/C=C\C(=O)O.O=C(O)/C=C\C(=O)O [AFATINIB DIMALEATE]	T
CC(=O)c1cc(-c2cc(C(=O)NC3CC3)ccc2C)c2ncccn12	F
CNc1oc(-c2cccc3ccccc23)nc1C#N	T
CN(C)CCOc1ccc(-c2nc(-c3ccncc3)c(-c3ccc4c(c3)CC/C4=N\O)[nH]2)cc1	T
Cc1cn(-c2cc(NC(=O)c3ccc4c(c3)CN(c3cncnc3)C[C@@H]4C)cc(C(F)(F)F)c2)cn1	T
CCCn1c(=O)c2[nH]c(C34CC5CC(CC3C5)C4)nc2n(CCC)c1=O	F
COc1ccc(NS(=O)(=O)c2sc3ccc(Cl)cc3c2C)cc1N1CCNCC1.Cl	F
c1ccc2oc(-c3csc(C4CCN(Cc5nc6ncccc6[nH]5)CC4)n3)cc2c1	T
CC(C)N1CCC(C)(C)c2cc(C#Cc3ccc(C(=O)O)cc3)ccc21	T
CCOc1cc2ncc(C#N)c(Nc3ccc(OCc4cccc(F)c4)c(Cl)c3)c2cc1NC(=O)/C=C/CN(C)C	F
Cc1nc(Cc2cccc(C(F)(F)F)c2)sc1-c1ccc(C(N)=O)nc1 [TP-024n]	F
Cc1cc2c(cc1N1C(=O)c3cccc4c(CCCO)ccc(c34)C1=O)n(C)c(=O)n2C	F
CCn1c(-c2nonc2N)nc2cnc(Oc3cccc(NC(=O)c4ccc(OCCN5CCOCC5)cc4)c3)cc21 [GSK-269962A]	F
CNC(=O)c1nn(C)c2c1C(C)(C)Cc1cnc(Nc3ccc(N4CCN(C)CC4)cc3)nc1-2	F
CCc1cc2c(cc1CC)CC(NC[C@H](O)c1ccc(O)c3[nH]c(=O)ccc13)C2	F
COc1cc(N2CCC(N(C)C)CC2)ccc1Nc1ncc(Cl)c(Nc2ccccc2P(C)(C)=O)n1	F

---

System: U2OS
protocol_details: Multiplex assay against U2OS
Type: toxicity, cell-based
test_context: human, 48 h, 1 µM, compound concentration 1 uM, replicate 1
Listing of entries alongside the reported Population Healthy Nuclei (%).

compound	Population Healthy Nuclei (%)
CCn1c(-c2nonc2N)nc2cnc(Oc3cccc(NC(=O)c4ccc(OCCN5CCOCC5)cc4)c3)cc21 [GSK-269962A]	70
CC(C)N1CCC(C)(C)c2cc(C#Cc3ccc(C(=O)O)cc3)ccc21	90
CC(=O)c1cc(-c2cc(C(=O)NC3CC3)ccc2C)c2ncccn12	91
Cc1nc(Cc2cccc(C(F)(F)F)c2)sc1-c1ccc(C(N)=O)nc1 [TP-024n]	88
CNc1oc(-c2cccc3ccccc23)nc1C#N	79
CCC(=O)O[C@]1(C(=O)SCF)[C@H](C)C[C@H]2[C@@H]3C[C@H](F)C4=CC(=O)C=C[C@]4(C)[C@@]3(F)[C@@H](O)C[C@@]21C [FLUTICASONE PROPIONATE]	89
O=C(O)c1ccc2cc(-c3ccc(O)c(C45CC6CC(CC(C6)C4)C5)c3)ccc2c1 [O-DEMETHYLATED ADAPALENE]	75
COc1ccc(NS(=O)(=O)c2sc3ccc(Cl)cc3c2C)cc1N1CCNCC1.Cl	82

---

Tested on: Fibroblast
protocol_details: Incucyte cell viability with human fibroblast; note: filed as whole numbers so only -1 and 0 and 1 occur
Format: toxicity, cell-based
test_context: 6 h, 10 µM, compound concentration 10 uM, replicate number 2, timepoint 6 hours

compound_structure_string	Growth Rate
CC(=O)N1CCC(c2ccc(C(=O)NC3=NCCN3)cc2C(F)(F)F)CC1	0
CS(=O)(=O)c1cc(C2(NC(=O)c3cncc4c3cnn4-c3ccc(F)cc3)CC2)ccn1	0
CN(CCOc1ccc(C[C@H](Nc2ccccc2C(=O)c2ccccc2)C(=O)O)cc1)c1ccccn1.O	0
Cc1cc2c(cc1N1C(=O)c3cccc4c(CCCO)ccc(c34)C1=O)n(C)c(=O)n2C	1
CCNC(=O)c1cc2c(N3CCOC[C@@H]3C)ccnc2[nH]1	1

---

System: U2OS
protocol_details: Multiplex assay against U2OS
Format: toxicity, cell-based
test_context: human, 24 h, 10 µM, compound concentration 10 uM, replicate 1
endpoint_label: Population Tubulin-Different-Phenotype (%)

molecule	obs_value
CCC(=O)O[C@]1(C(=O)SCF)[C@H](C)C[C@H]2[C@@H]3C[C@H](F)C4=CC(=O)C=C[C@]4(C)[C@@]3(F)[C@@H](O)C[C@@]21C [FLUTICASONE PROPIONATE]	41%
Nc1nc2c(c(N3CCNCC3)n1)CCC1=C2[C@@H]2CCCC[C@@H]2O1	75%
Cc1nc(Cc2cccc(C(F)(F)F)c2)sc1-c1ccc(C(N)=O)nc1 [TP-024n]	16%
COc1ccc(NS(=O)(=O)c2sc3ccc(Cl)cc3c2C)cc1N1CCNCC1.Cl	95%
Cc1cc2c(cc1N1C(=O)c3cccc4c(CCCO)ccc(c34)C1=O)n(C)c(=O)n2C	38%
CCOc1cc2ncc(C#N)c(Nc3ccc(OCc4cccc(F)c4)c(Cl)c3)c2cc1NC(=O)/C=C/CN(C)C	81%
CC(C)(C)c1cnc(CSc2cnc(NC(=O)C3CCNCC3)s2)o1	41%
Cl.Cl.NC1(c2ccc(-c3nc4ccn5c(=O)[nH]nc5c4cc3-c3ccccc3)cc2)CCC1	55%

---

Tested on: U2OS
protocol_details: Multiplex assay against U2OS
Format: toxicity, cell-based
test_context: human, 24 h, 10 µM, compound concentration 10 uM, replicate 2
endpoint_label: Population Tubulin-Different-Phenotype (%)

molecule	obs_value
Cl.Cl.Nc1ncnc2c1c(-c1cccc(OCc3ccccc3)c1)cn2[C@H]1C[C@@H](CN2CCC2)C1	96
COc1ccc(NS(=O)(=O)c2sc3ccc(Cl)cc3c2C)cc1N1CCNCC1.Cl	91
Cc1cn(-c2cc(NC(=O)c3ccc4c(c3)CN(c3cncnc3)C[C@@H]4C)cc(C(F)(F)F)c2)cn1	10
CCOc1cc2ncc(C#N)c(Nc3ccc(OCc4cccc(F)c4)c(Cl)c3)c2cc1NC(=O)/C=C/CN(C)C [HKI-357]	84
CN(C)C/C=C/C(=O)Nc1cc2c(Nc3ccc(F)c(Cl)c3)ncnc2cc1O[C@H]1CCOC1.O=C(O)/C=C\C(=O)O.O=C(O)/C=C\C(=O)O [AFATINIB DIMALEATE]	47
CC(C)N1CCC(C)(C)c2cc(C#Cc3ccc(C(=O)O)cc3)ccc21	26
Cl.Cl.NC1(c2ccc(-c3nc4ccn5c(=O)[nH]nc5c4cc3-c3ccccc3)cc2)CCC1	48
CC(C)(C)c1cnc(CSc2cnc(NC(=O)C3CCNCC3)s2)o1 [BMS-387032]	27
CCc1cc2c(cc1CC)CC(NC[C@H](O)c1ccc(O)c3[nH]c(=O)ccc13)C2 [INDACATEROL]	86
O=C(O)c1ccc2cc(-c3ccc(O)c(C45CC6CC(CC(C6)C4)C5)c3)ccc2c1 [O-DEMETHYLATED ADAPALENE]	28
CCCn1c(=O)c2[nH]c(C34CC5CC(CC3C5)C4)nc2n(CCC)c1=O [ROLOFYLLINE]	100

---

Test system: U2OS
protocol_details: Multiplex assay against U2OS
Type: toxicity, cell-based
test_context: human, 12 h, 10 µM, compound concentration 10 uM, replicate 1
Assign labels as follows, please: TRUE for Population Fragmented Nuclei (%) below 10%; FALSE for Population Fragmented Nuclei (%) equal to or exceeding 10%.

compound	classification
CC(=O)c1cc(-c2cc(C(=O)NC3CC3)ccc2C)c2ncccn12	TRUE
O=C(O)c1ccc2cc(-c3ccc(O)c(C45CC6CC(CC(C6)C4)C5)c3)ccc2c1 [O-DEMETHYLATED ADAPALENE]	TRUE
CCOc1cc(N2CCC(O)CC2)ccc1Nc1ncc2c(n1)N(C1CCCC1)CCC(=O)N2C	TRUE
CNc1oc(-c2cccc3ccccc23)nc1C#N	FALSE
COc1ccc(NS(=O)(=O)c2sc3ccc(Cl)cc3c2C)cc1N1CCNCC1.Cl	FALSE
CC(C)(C)c1cnc(CSc2cnc(NC(=O)C3CCNCC3)s2)o1 [BMS-387032]	FALSE
Cc1cc2c(cc1N1C(=O)c3cccc4c(CCCO)ccc(c34)C1=O)n(C)c(=O)n2C	FALSE
COc1cc2c(NC3CCN(C(C)C)CC3)nc(N3CCC(F)(F)CC3)nc2cc1OCCCN1CCCC1	FALSE
CN(C)CCOc1ccc(-c2nc(-c3ccncc3)c(-c3ccc4c(c3)CC/C4=N\O)[nH]2)cc1 [SB590885]	TRUE
N#Cc1cnc(Nc2cc(NC[C@H]3CNCCO3)c(C(F)(F)F)cn2)cn1 [SRA-737]	TRUE
CNC(=O)c1cc(Oc2ccc(NC(=O)Nc3cc(C(C)(C)C)nn3-c3ccc4ncccc4c3)c(F)c2)ccn1 [REBASTINIB]	FALSE
CC(C)N1CCC(C)(C)c2cc(C#Cc3ccc(C(=O)O)cc3)ccc21	FALSE
O=C(O)c1ccc2c(c1)nc(Nc1cccc(Cl)c1)c1ccncc12 [SILMITASERTIB]	TRUE
CCCn1c(=O)c2[nH]c(C34CC5CC(CC3C5)C4)nc2n(CCC)c1=O [ROLOFYLLINE]	TRUE
CCc1cc2c(cc1CC)CC(NC[C@H](O)c1ccc(O)c3[nH]c(=O)ccc13)C2 [INDACATEROL]	FALSE
Cl.Cl.NC1(c2ccc(-c3nc4ccn5c(=O)[nH]nc5c4cc3-c3ccccc3)cc2)CCC1	FALSE
Nc1nc2c(c(N3CCNCC3)n1)CCC1=C2[C@@H]2CCCC[C@@H]2O1	FALSE
CCC(=O)O[C@]1(C(=O)SCF)[C@H](C)C[C@H]2[C@@H]3C[C@H](F)C4=CC(=O)C=C[C@]4(C)[C@@]3(F)[C@@H](O)C[C@@]21C [FLUTICASONE PROPIONATE]	FALSE
C[C@@H]1CN(c2cc(-c3nn(C)c4ccc(OC5(C)CC5)cc34)ncn2)C[C@H](C)O1 [MLi-2-NC]	TRUE
Cl.Cl.Nc1ncnc2c1c(-c1cccc(OCc3ccccc3)c1)cn2[C@H]1C[C@@H](CN2CCC2)C1	FALSE
c1ccc2oc(-c3csc(C4CCN(Cc5nc6ncccc6[nH]5)CC4)n3)cc2c1	TRUE
COc1cc2c(Nc3ccc(NC(=O)c4ccccc4)cc3)ncnc2cc1OCCCN1CCOCC1	TRUE
Cc1c(Oc2ccc(F)cc2)c(OC(C)C)nn1-c1ccc(C2CC2)cn1 [IPP/CNRS-A019]	TRUE
Cc1cn(-c2cc(NC(=O)c3ccc4c(c3)CN(c3cncnc3)C[C@@H]4C)cc(C(F)(F)F)c2)cn1	TRUE
CCn1c(-c2nonc2N)nc2cnc(Oc3cccc(NC(=O)c4ccc(OCCN5CCOCC5)cc4)c3)cc21 [GSK-269962A]	FALSE
Nc1ccc(C(=O)Nc2cccc(-c3nc(N4CCOCC4)c4oc5ncccc5c4n3)c2)cn1	FALSE
CCOc1cc2ncc(C#N)c(Nc3ccc(OCc4cccc(F)c4)c(Cl)c3)c2cc1NC(=O)/C=C/CN(C)C [HKI-357]	FALSE
